Test system: P30-OHK (B-Lymphoblastic Leukemia)
assayProcedure: combination Emax (second highest fraction inhibited in the dose matrix, 72 h); higher = more inhibition; extreme values may be limits of the assay
If the reported combination Emax equals or exceeds 0.9, assign satisfied. If not, assign not satisfied.

Record CN(CCO)CC[C@H](CSc1ccccc1)Nc1ccc(S(=O)(=O)NC(=O)c2ccc(N3CCC([C@@H](O)c4ccccc4-c4ccc(Cl)cc4)CC3)cc2)cc1S(=O)(=O)C(F)(F)F [AZD4320] + C1CN(CCC1(C(=O)N[C@@H](CCO)C2=CC=C(C=C2)Cl)N)C3=NC=NC4=C3C=CN4 [Capivasertib] (first compound max 1 µM, 7x7, partner max 3 µM) ; criterion: combination Emax no lower than 0.9. Met?
satisfied

Record Cc1c2c(nn1C)CSCc1cc(n(C)n1)CSc1cc(c3ccccc3c1)OCCCc1c(C(=O)O)n(C)c3c-2c(Cl)ccc13 [AZD5991] + C[C@@H](Nc1cc(F)cc(F)c1)c1cc(C(=O)N(C)C)cc2c(=O)cc(N3CCOCC3)oc12 [AZD8186] (first compound max 1 µM, 7x7, partner max 3 µM) ; criterion: combination Emax no lower than 0.9. Met?
not satisfied

Record CC(=O)c1c(C)c2cnc(Nc3ccc(N4CCNCC4)cn3)nc2n(C2CCCC2)c1=O [Palbociclib] + CN(CC[C@H](CSC1=CC=CC=C1)NC2=C(C=C(C=C2)S(=O)(=O)NC(=O)C3=CC=C(C=C3)N4CCC(CC4)[C@H](C5=CC=CC=C5C6=CC=C(C=C6)Cl)O)S(=O)(=O)C(F)(F)F)CCO [AZD4320] (first compound max 10 µM, 7x7, partner max 1 µM) ; criterion: combination Emax no lower than 0.9. Met?
satisfied

Record C=CCn1c(=O)c2cnc(Nc3ccc(N4CCN(C)CC4)cc3)nc2n1-c1cccc(C(C)(C)O)n1 [AZD1775] + C1CN(CCC1(C(=O)N[C@@H](CCO)C2=CC=C(C=C2)Cl)N)C3=NC=NC4=C3C=CN4 [Capivasertib] (first compound max 3 µM, partner max 3 µM) ; criterion: combination Emax no lower than 0.9. Met?
satisfied

Record CCN(CCO)CCCOc1ccc2c(Nc3cc(CC(=O)Nc4cccc(F)c4)[nH]n3)ncnc2c1 [AZD2811] + C=CCn1c(=O)c2cnc(Nc3ccc(N4CCN(C)CC4)cc3)nc2n1-c1cccc(C(C)(C)O)n1 [AZD1775] (first compound max 1 µM, partner max 1 µM) ; criterion: combination Emax no lower than 0.9. Met?
not satisfied

Record CC1(C)CCC(CN2CCN(c3ccc(C(=O)NS(=O)(=O)c4ccc(NCC5CCOCC5)c([N+](=O)[O-])c4)c(Oc4cnc5[nH]ccc5c4)c3)CC2)=C(c2ccc(Cl)cc2)C1 [Venetoclax] + Cc1cc2ncnn2cc1Nc1ncc2c(n1)n(C1CCOCC1)c(=O)n2C [AZD7648] (first compound max 1 µM, 7x7, partner max 10 µM) ; criterion: combination Emax no lower than 0.9. Met?
not satisfied

Record COc1cccc(OCCCN)c1-c1cc(Nc2cnc(C#N)cn2)n[nH]1 [Prexasertib] + C[C@@H]1COCCN1C2=NC(=NC(=C2)C3(CC3)[S@](=N)(=O)C)C4=C5C=CNC5=NC=C4 [AZD6738] (first compound max 1 µM, 7x7, partner max 10 µM) ; criterion: combination Emax no lower than 0.9. Met?
satisfied
